biological target: Hematopoietic prostaglandin D synthase (Rattus norvegicus); experiment: Inhibition of H-PGDS in rat RBL cells assessed as reduction in A23187-induced PGD2 production pretreated for 30 mins followed by A23187 addition for 30 mins by RapidFire Mass spectrometry; type: cell-based
Sequence (O35543 whole entry): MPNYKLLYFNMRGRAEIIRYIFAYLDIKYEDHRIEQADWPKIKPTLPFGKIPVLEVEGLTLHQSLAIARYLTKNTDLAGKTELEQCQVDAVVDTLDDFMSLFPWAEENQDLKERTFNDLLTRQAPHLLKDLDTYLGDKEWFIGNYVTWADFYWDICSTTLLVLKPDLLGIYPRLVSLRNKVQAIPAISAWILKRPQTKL
EC50 strictly less than 100 nM = class 1. Otherwise class 0.

- smiles_repr: "O=C(N[C@H]1CC[C@H](N[C@H](CO)C(F)(F)F)CC1)c1cnc2cc(C3CC3)ncc2c1"
  cat: "class 0"
- smiles_repr: "CC(C)(O)[C@H]1CC[C@H](NC(=O)c2cnc3nc(C4CCC4)ccc3c2)CC1"
  cat: "class 0"
- smiles_repr: "C[C@H]1CCN1c1cc2ncc(C(=O)N[C@H]3CCNC3=O)cc2cn1"
  cat: "class 0"
- smiles_repr: "COc1ccc2cc(C(=O)N[C@H]3CC[C@H](C(C)(C)O)CC3)nnc2c1"
  cat: "class 0"
- smiles_repr: "O=C(N[C@H]1CC[C@H](N2CC(F)(F)C2)CC1)c1cnc2cc(C3CC3)ncc2c1"
  cat: "class 1"
- smiles_repr: "C[C@H]1CCN1c1nc2ncc(C(=O)N[C@H]3C[C@](C)(O)C3)cc2cc1Cl"
  cat: "class 1"
- smiles_repr: "CC(C)(O)[C@H]1CC[C@H](NC(=O)c2cnc3nc(OCC(F)(F)F)ccc3c2)CC1"
  cat: "class 0"
- smiles_repr: "COc1cnc2cc(C(=O)N[C@H]3CC[C@H](C(C)(C)O)CC3)cnc2c1"
  cat: "class 0"
- smiles_repr: "CC(C)(O)[C@H]1CC[C@H](NC(=O)c2cnc3nc(N4CCC4)ccc3c2)CC1"
  cat: "class 1"
- smiles_repr: "CC(C)(O)[C@H]1CC[C@H](NC(=O)c2cnc3cc(N4CC(F)C4)ncc3c2)CC1"
  cat: "class 0"
- smiles_repr: "C[C@H]1CCN1c1cc2ncc(C(=O)N[C@H]3CC[C@H](C(C)(C)O)CC3)cc2cn1"
  cat: "class 1"
- smiles_repr: "C[C@]1(O)C[C@H](NC(=O)c2cnc3nc(C4CC4)ccc3c2)C1"
  cat: "class 0"
- smiles_repr: "CC(C)(O)[C@H]1CC[C@H](NC(=O)c2cnc3nc(C4CC4)ncc3c2)CC1"
  cat: "class 0"
- smiles_repr: "CC(C)(O)[C@H]1CC[C@H](NC(=O)c2cnc3nc(NCC(F)(F)F)ccc3c2)CC1"
  cat: "class 0"
- smiles_repr: "CC(C)(O)[C@]12C[C@@](NC(=O)c3cnc4nc(C5CC5)ccc4c3)(C1)C2"
  cat: "class 0"
- smiles_repr: "CC(C)(O)[C@H]1CC[C@H](NC(=O)c2cnc3nc(N4CCC4)ncc3c2)CC1"
  cat: "class 0"
- smiles_repr: "O=C(N[C@H]1CCNC1=O)c1cnc2cc(N3CCC3)ncc2c1"
  cat: "class 0"
- smiles_repr: "O=C(N[C@H]1CC[C@H](N2CC(F)(F)C2)CC1)c1cnc2nc(C3CC3)ccc2c1"
  cat: "class 1"
- smiles_repr: "CC(C)(O)[C@H]1CC[C@H](NC(=O)c2cnc3nc(N4CCC4)c(Cl)cc3c2)CC1"
  cat: "class 1"

Attribution: ChEMBL document CHEMBL5260850
